Target: PDE4B2 (Homo sapiens)
Construct: expressed in transfected cells; host or cells: Flp-In-293 (Flpin-293-PDE4B2 [sic])
Assay: PDE4B2 cell experiment (cAMP, Eu-cAMP tracer / Ulight-anti-cAMP)
Format: cell-based
Conditions: Flpin-293-PDE4B2 cells, 1 nM
Endpoint: Cell Inhibition% @1 nM (%)

Cn1cnc(-c2ccc3c(c2)CCN(c2nc4c(c(NC5(CO)CCC5)n2)[S+]([O-])CC4)C3)n1 (stereo not shown)
34.83
[O-][S+]1CCc2nc(N3CCc4cc(-n5cccn5)ccc4C3)nc(NC3(CO)CCC3)c21 (stereo not shown)
19.25
[O-][S+]1CCc2nc(N3CCc4cc(N5CC(F)(F)C5)ccc4C3)nc(NC3(CO)CCC3)c21 (stereo not shown)
3.67
[O-][S+]1CCc2nc(N3CCc4cc(-n5ccnc5)ccc4C3)nc(NC3(CO)CCC3)c21 (stereo not shown)
14.99
COc1ccc2c(c1)OC[C@H]1CN(c3nc4c(c(NC5(CO)CCC5)n3)[S+]([O-])CC4)CC[C@H]21 (stereo partly shown)
18.98

I: Nc1nc2cc(Cl)ccc2c2c1CN(c1nc3c(c(NC4(CO)CCC4)n1)[S+]([O-])CC3)CC2 (stereo not shown)
II: [O-][S+]1CCc2nc(N3CC[C@@H]4c5ccc(C(F)(F)F)cc5OC[C@H]4C3)nc(NC3(CO)CCC3)c21 (stereo partly shown)
Ask: Thinking about recorded Cell Inhibition% @1 nM values, which is higher, I or II ? Give the label of your selection.
Reply: II

###

Target: PDE4B2 (Homo sapiens)
Construct: expressed in transfected cells; host or cells: Flp-In-293 (Flpin-293-PDE4B2 [sic])
Assay: PDE4B2 cell experiment (cAMP, Eu-cAMP tracer / Ulight-anti-cAMP)
Format: cell-based
Conditions: Flpin-293-PDE4B2 cells, 10 nM
Endpoint: Cell Inhibition% @10 nM (%)

Illustrative cases are given below, each with its answer.
[O-][S+]1CCc2nc(N3CCc4cc(C(F)(F)F)ccc4C3)nc(NC3(CO)CCC3)c21 (stereo not shown)
81.81
O=C(O)Cc1ccc(Nc2nc(N3CCc4cc(Cl)ccc4C3)nc3c2[S@@+]([O-])CC3)cc1
6.68

P: [O-][S+]1CCc2nc(N3CCc4cc(N5CC(F)(F)C5)ccc4C3)nc(NC3(CO)CCC3)c21 (stereo not shown)
Q: Cn1ccc(-c2ccc3c(c2)CCN(c2nc4c(c(NC5(CO)CCC5)n2)[S+]([O-])CC4)C3)n1 (stereo not shown)
Ask: Thinking about recorded Cell Inhibition% @10 nM values, which is higher, P or Q ? Give the label of your selection.
Reply: Q

###

Target: PDE4B2 (Homo sapiens, UniProt Q07343)
Construct: expressed in transfected cells; host or cells: Flp-In-293 (Flpin-293-PDE4B2 [sic])
Sequence (Q07343 1-564 isoform Q07343-2): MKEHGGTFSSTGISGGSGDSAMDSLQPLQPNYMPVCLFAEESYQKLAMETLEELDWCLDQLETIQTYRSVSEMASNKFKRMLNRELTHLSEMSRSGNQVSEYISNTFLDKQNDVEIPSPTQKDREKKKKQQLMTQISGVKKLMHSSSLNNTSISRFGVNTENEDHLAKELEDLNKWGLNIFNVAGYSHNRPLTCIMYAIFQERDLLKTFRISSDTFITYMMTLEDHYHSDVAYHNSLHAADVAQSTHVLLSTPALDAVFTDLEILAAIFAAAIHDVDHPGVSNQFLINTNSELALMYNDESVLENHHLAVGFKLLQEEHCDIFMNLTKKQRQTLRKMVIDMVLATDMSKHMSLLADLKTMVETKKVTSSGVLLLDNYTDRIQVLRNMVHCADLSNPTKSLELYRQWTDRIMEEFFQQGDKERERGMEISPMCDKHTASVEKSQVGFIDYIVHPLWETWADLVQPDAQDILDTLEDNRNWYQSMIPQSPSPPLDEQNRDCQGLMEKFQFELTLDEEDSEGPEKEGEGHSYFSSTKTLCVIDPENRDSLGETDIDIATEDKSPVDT
Assay: PDE4B2 cell experiment (cAMP, Eu-cAMP tracer / Ulight-anti-cAMP)
Type: cell-based
Conditions: Flpin-293-PDE4B2 cells, 10 nM
Endpoint: Cell Inhibition% @10 nM (%)

P: [O-][S+]1CCc2nc(N3CCc4cnc(Cl)cc4C3)nc(NC3(CO)CCC3)c21 (stereo not shown) [Compound 79]
Q: [O-][S+]1CCc2nc(N3CCc4cc(-c5ncco5)ccc4C3)nc(NC3(CO)CCC3)c21 (stereo not shown) [Compound 84]
R: [O-][S+]1CCc2nc(N3CCc4nc(Br)sc4C3)nc(NC3(CO)CCC3)c21 (stereo not shown) [Compound 63]
S: [O-][S+]1CCc2nc(N3CC[C@@H]4c5ccc(F)cc5OC[C@H]4C3)nc(NC3(CO)CCC3)c21 (stereo partly shown) [Compound 109]
Ask: Hey, quick one: sort these by Cell Inhibition% @10 nM, largest value first please. A ranking is expressed here by listing the labels in the requested order.
Reply: Q, S, R, P
(Q: 96.96%, S: 65.40%, R: 31.1%, P: 11.19%)
